molecular target: synthetic amyloid-like fibrils of recombinant amyloidogenic λ6 variable domain protein (rVλ6Wil); assay: EuLISA, fibrils coated on plate (FIG. 13A)
Observed property: pEC50
Remember, pEC50 is on a log scale: it is -log10 of the molar concentration.

Query (binder): humanized antibody VH6/VL3 (antibody, V domains shown) VH: QVQLQESGPGLVKPSETLSLTCTVSGFSLSSYGVSWVRQPPGKGLEWLGVIWGDGSTNYHPNLMSRLSISKDTSKNQFSLKLSSVTAADTATYYCVTLDYWGQGTSVTVSS VL: DVVMTQSPLSLPVTLGQPASISCRSSQSLVHRNGNTYLHWYLQRPGQSPRLLIYKVSNRFSGVPDRFSGSGSGTDFTLKISRVEAEDVGLYFCFQTTYVPNTFGGGTKLEIK ; field requested: pEC50
7.02
